The values you see were collected from paper PMC7819943.

Answer each item with its documented binding signal.
- TARGET_ENTITY: OsWRKY34 (Oryza sativa, UniProt Q0JBA9 1-250)
- Sequence (Q0JBA9 entry or part of it): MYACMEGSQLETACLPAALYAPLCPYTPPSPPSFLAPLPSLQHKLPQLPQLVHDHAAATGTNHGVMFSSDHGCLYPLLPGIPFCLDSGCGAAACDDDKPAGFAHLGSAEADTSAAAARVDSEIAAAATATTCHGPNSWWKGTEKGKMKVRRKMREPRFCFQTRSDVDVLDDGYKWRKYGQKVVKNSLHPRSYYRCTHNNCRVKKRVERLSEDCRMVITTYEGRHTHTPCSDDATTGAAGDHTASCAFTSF
- TEST_DETAILS: protein-binding microarray (RPBM); PBS, 2% BSA, 51.3 ng/ul salmon testes DNA, 50 uM zinc acetate, 200 nM TF, 25 C, 1 h; high values mean tight binding
- SETTINGS: protein: recombinant; tags: N-terminal polyhistidine and DsRed monomer fusion (pET32a); label: CyDye5-dUTP incorporated in the synthesized complementary strand; 3' TTTTT single-stranded linker to array surface; dsDNA, one strand shown
The full ranking holds about 68,000 sequences; the median of “fluorescence intensity (a.u.)” is about 9,100, and the highest 2% start at about 16,000. The sample holds the highest values, similar sequences and a random draw of the others, so the mix is not that of the screen.

[
  {
    "RESIDUE_CODES": "GGGCCTATAACTGTAGTTCCATCACGTCTCTCTGTACGTTCGGAGTCACCTAGTGCAG",
    "binding signal": "8820 fluorescence intensity (a.u.)"
  },
  {
    "RESIDUE_CODES": "GGGTATTTTTTAAGTAGCTAGGTGTATAATTAAATTAGTTCGGAGTCACCTAGTGCAG",
    "binding signal": "8760 fluorescence intensity (a.u.)"
  },
  {
    "RESIDUE_CODES": "AAGAAATCTCTTTGAAAAACTTGCATGCTAACTTGAGACGCGGAGTCACCTAGTGCAG",
    "binding signal": "44900 fluorescence intensity (a.u.)"
  },
  {
    "RESIDUE_CODES": "TCCATTTCCTTGTTTGGTTGGGTGGATGAGAATGGATTGACGGAGTCACCTAGTGCAG",
    "binding signal": "9010 fluorescence intensity (a.u.)"
  }
]

Provide binding signal values for the following items, in order.
1. CAACCTCTTGCTAACTTTCCTTTGAGTCTATCTCTCTCATCGGAGTCACCTAGTGCAG
2. CGGCGTCTCTACCTCTACGAATCAGGTCAGGCTTCGATCCCGGAGTCACCTAGTGCAG
3. TCATATTGTACCTTCCACTTTTATTCTTTTAAAGCCTATACGGAGTCACCTAGTGCAG
4. GTACACGTTACCCGCGTGGGTGTGGGTATGGGGATGATTTCGGAGTCACCTAGTGCAG

10700 fluorescence intensity (a.u.)
8380 fluorescence intensity (a.u.)
9560 fluorescence intensity (a.u.)
11700 fluorescence intensity (a.u.)

Query: binding signal; subject: CTCTGACCATATATCACGTTCTACGTCCAGGTCAAATCACCGGAGTCACCTAGTGCAG
8730 fluorescence intensity (a.u.)

====

- TARGET_ENTITY: OsWRKY34 (Oryza sativa, UniProt Q0JBA9 1-250)
- TEST_DETAILS: protein-binding microarray (RPBM); PBS, 2% BSA, 51.3 ng/ul salmon testes DNA, 50 uM zinc acetate, 200 nM TF, 25 C, 1 h; high values mean tight binding
- SETTINGS: protein: recombinant; tags: N-terminal polyhistidine and DsRed monomer fusion (pET32a); label: CyDye5-dUTP incorporated in the synthesized complementary strand; 3' TTTTT single-stranded linker to array surface; dsDNA, one strand shown
Over roughly 68,000 sequences, “fluorescence intensity (a.u.)” has its median near 9,100; the highest 2% begin near 16,000. Shown is part of a subset that was picked to be rich in the highest values.
Answer each item with its documented binding signal.

[
  {
    "RESIDUE_CODES": "TGTGTGTGTATATATATGTAGCCTGTTCGCACATCATCTTCGGAGTCACCTAGTGCAG",
    "OBSERVED": "13600 fluorescence intensity (a.u.)"
  },
  {
    "RESIDUE_CODES": "CATTGTTCCTCACAGGATCAGGGGTGGAGAGTGAAGAGAGCGGAGTCACCTAGTGCAG",
    "OBSERVED": "8070 fluorescence intensity (a.u.)"
  },
  {
    "RESIDUE_CODES": "TTCTACACTCTCTTGATCAGCTCTCACCACTATGTACACTCGGAGTCACCTAGTGCAG",
    "OBSERVED": "8860 fluorescence intensity (a.u.)"
  },
  {
    "RESIDUE_CODES": "AGGAGGTGGTGGGTGGTGGTGGCTGCGGCTTGGCGCGATGCGGAGTCACCTAGTGCAG",
    "OBSERVED": "9400 fluorescence intensity (a.u.)"
  },
  {
    "RESIDUE_CODES": "GCTGTAGAAATTTCTCCTTCTTTGTTAAATGTATGTCTTTCGGAGTCACCTAGTGCAG",
    "OBSERVED": "9540 fluorescence intensity (a.u.)"
  },
  {
    "RESIDUE_CODES": "GAGGAGAGGCGGGGTGAGACGGGACGGGAGGGTGGCGATGCGGAGTCACCTAGTGCAG",
    "OBSERVED": "9530 fluorescence intensity (a.u.)"
  }
]

Provide binding signal values for the following items, in order.
1. TTGGGTTGGGTTGGGTGGTCCATTCTGTACGGTGCGCCGGCGGAGTCACCTAGTGCAG
2. GCTTCGGCTCGGGGTGGGTTGGGTTGGGTTGGGTTCGATGCGGAGTCACCTAGTGCAG
3. GCGCGGCGGCGGTGGGGTGGTAGTGGTGGTGGGTGGAATGCGGAGTCACCTAGTGCAG
4. GACGGCGCCCTGCGGCTTCGGTTGCGGGGTGGGTGGTGGCCGGAGTCACCTAGTGCAG

19600 fluorescence intensity (a.u.)
32400 fluorescence intensity (a.u.)
13500 fluorescence intensity (a.u.)
10300 fluorescence intensity (a.u.)

====

Answer each item with its documented binding signal.
- TARGET_ENTITY: OsWRKY34 (Oryza sativa, UniProt Q0JBA9 1-250)
- TEST_DETAILS: protein-binding microarray (RPBM); PBS, 2% BSA, 51.3 ng/ul salmon testes DNA, 50 uM zinc acetate, 200 nM TF, 25 C, 1 h; high values mean tight binding
- SETTINGS: protein: recombinant; tags: N-terminal polyhistidine and DsRed monomer fusion (pET32a); label: CyDye5-dUTP incorporated in the synthesized complementary strand; 3' TTTTT single-stranded linker to array surface; dsDNA, one strand shown
In all, about 68,000 sequences were measured (“fluorescence intensity (a.u.)”: median about 9,100, highest 2% from about 16,000 on). The entries come from a sample that favours the highest values as a whole.

Illustrative cases are given below, each with its answer.
[
  {
    "RESIDUE_CODES": "GCTGTTCCATGCTCCACAACCCCGGGTCATTGACCCAATCCGGAGTCACCTAGTGCAG",
    "TARGET_ENTITY": "OsWRKY34 (Oryza sativa, UniProt Q0JBA9 1-250)",
    "OBSERVED": "16700 fluorescence intensity (a.u.)"
  },
  {
    "RESIDUE_CODES": "ACGTCTCCACCACCACCACCGGCCAAACGCCGACCTCATCCGGAGTCACCTAGTGCAG",
    "TARGET_ENTITY": "OsWRKY34 (Oryza sativa, UniProt Q0JBA9 1-250)",
    "OBSERVED": "9450 fluorescence intensity (a.u.)"
  },
  {
    "RESIDUE_CODES": "GTAATTTAATGTTCATTATGGTGTTTCTTAATTGTTTTTTCGGAGTCACCTAGTGCAG",
    "TARGET_ENTITY": "OsWRKY34 (Oryza sativa, UniProt Q0JBA9 1-250)",
    "OBSERVED": "9320 fluorescence intensity (a.u.)"
  },
  {
    "RESIDUE_CODES": "CTGCACATGATTTCAATCTACTATGGACATTCTCACTCTCCGGAGTCACCTAGTGCAG",
    "TARGET_ENTITY": "OsWRKY34 (Oryza sativa, UniProt Q0JBA9 1-250)",
    "OBSERVED": "12100 fluorescence intensity (a.u.)"
  },
  {
    "RESIDUE_CODES": "CTACATGGGTGTTGACTCATTTTATTTATCTTTTTCTCCACGGAGTCACCTAGTGCAG",
    "TARGET_ENTITY": "OsWRKY34 (Oryza sativa, UniProt Q0JBA9 1-250)",
    "OBSERVED": "10300 fluorescence intensity (a.u.)"
  }
]

Provide binding signal values for the following items, in order.
1. TATATATATATATATATATAGATTTATTGACATCTATATGCGGAGTCACCTAGTGCAG
2. CATCTATGACCCATTTTTTTTTATTTGACTGATACCCATCCGGAGTCACCTAGTGCAG

1. 9230 fluorescence intensity (a.u.)
2. 9760 fluorescence intensity (a.u.)

Provide binding signal values for the following items, in order.
1. TTTTTTTTTCCTTTTGCTGACATGCATTATGTTTTCTATTCGGAGTCACCTAGTGCAG
2. GTCGTTGATTTTTTTAAAAATGTTTAACCGTTCGTTTTATCGGAGTCACCTAGTGCAG

["10000 fluorescence intensity (a.u.)", "8170 fluorescence intensity (a.u.)"]

Provide binding signal values for the following items, in order.
1. ATGTTTTTATGCTGCATTCCCCATGTGTGTTTCCTTCTAACGGAGTCACCTAGTGCAG
2. CGAGTCTTTTGTGCGGGTGGTTGGGGCGTGGGCGGTGGCGCGGAGTCACCTAGTGCAG
3. TAGTGGTGGTCTTGATTCCTGACATAGCAGACGCATCTGACGGAGTCACCTAGTGCAG
4. ATCACATCTTAACATTTCATTCTCTGCTCAAAGATTCGATCGGAGTCACCTAGTGCAG
5. GCATGAGTAGGGGATGGCATTAAAACAGGTTGGTCAGGTGCGGAGTCACCTAGTGCAG
6. AATGTATGACGCCGTTGACTTTTTAACAAATATTTGACATCGGAGTCACCTAGTGCAG
7. CCTAAATGTTTGACACCGTTGACTTTTTTAAACATATTTGCGGAGTCACCTAGTGCAG

19600 fluorescence intensity (a.u.)
23100 fluorescence intensity (a.u.)
10500 fluorescence intensity (a.u.)
8620 fluorescence intensity (a.u.)
8920 fluorescence intensity (a.u.)
20300 fluorescence intensity (a.u.)
33000 fluorescence intensity (a.u.)

Provide binding signal values for the following items, in order.
1. GGCCGGGCGAGGCGCTGGGAGGTGGCGGCTAGCGGCGGGGCGGAGTCACCTAGTGCAG
2. ATTTTGCCCCTTGTTGATCACCACAGAAGAACATGTGCTACGGAGTCACCTAGTGCAG

["8500 fluorescence intensity (a.u.)", "9790 fluorescence intensity (a.u.)"]

Provide binding signal values for the following items, in order.
1. GTGTAACTTGTTTTGCTAGGGTTTTTGATTGCTTTTTACTCGGAGTCACCTAGTGCAG
2. TCCCTAAATGTTTAACGTCGTTGACTTTTTAAAATATGTTCGGAGTCACCTAGTGCAG
3. GATCATCTGTTCCACCCGCCACCCGCCACCCGCCACAATCCGGAGTCACCTAGTGCAG
4. ATGTTTGACACCGTTGACTTTTTAGTACGTGTTTGACCATCGGAGTCACCTAGTGCAG
5. AACAGCTCTCGATCTGATCGTCCCCACACCGCACGCTGACCGGAGTCACCTAGTGCAG

1. 12000 fluorescence intensity (a.u.)
2. 21000 fluorescence intensity (a.u.)
3. 13200 fluorescence intensity (a.u.)
4. 28200 fluorescence intensity (a.u.)
5. 9930 fluorescence intensity (a.u.)

Provide binding signal values for the following items, in order.
1. GTTTGACACTTTTAGTACGTGTTTGACCATTTGTTTTATTCGGAGTCACCTAGTGCAG
2. CTCTTGCTCTGCTCTGTTTTTGGCCCATCCTCACCCACAACGGAGTCACCTAGTGCAG
3. CTATTCTTGTGTTTTTTTCTATGTTTAATCCTATGTTTTACGGAGTCACCTAGTGCAG

1: 10200 fluorescence intensity (a.u.); 2: 10600 fluorescence intensity (a.u.); 3: 16600 fluorescence intensity (a.u.)

Provide binding signal values for the following items, in order.
1. CCAAGACCGCACCCGTATAAAGCCGCAGACCTCTCTCTCCCGGAGTCACCTAGTGCAG
2. TCCCTAAATATATGACGTTGTTGACTTTTTAAAACATTTTCGGAGTCACCTAGTGCAG
3. AATCGCTTTCTCTCTCTTCTTCCTTGCTCTCTCATACAACCGGAGTCACCTAGTGCAG
4. GTGCAGTTTATACATTAACATGTTAATCCCACTTTACTACCGGAGTCACCTAGTGCAG
5. CTTCTCTTACCTCGGTGGGTGCTTAATGTGCTGGTTTGAACGGAGTCACCTAGTGCAG
6. AGATGAGAGGTTTGGTTGGTTGGATGGTGGGGAGCGCCCGCGGAGTCACCTAGTGCAG

["10100 fluorescence intensity (a.u.)", "11200 fluorescence intensity (a.u.)", "10200 fluorescence intensity (a.u.)", "10300 fluorescence intensity (a.u.)", "8740 fluorescence intensity (a.u.)", "10400 fluorescence intensity (a.u.)"]

Provide binding signal values for the following items, in order.
1. CTTAATCGGTATGGGGAGAGTGTTCTTATTGTTTCATTTACGGAGTCACCTAGTGCAG
2. TTTATTTCCTAGATTAATTCTGATATGTTTCTATGTTTTACGGAGTCACCTAGTGCAG
3. ATTCCTATATTTTTCCTATGTTTTGTAATCCTCTGTTTTACGGAGTCACCTAGTGCAG

1: 16800 fluorescence intensity (a.u.); 2: 9260 fluorescence intensity (a.u.); 3: 12600 fluorescence intensity (a.u.)

Provide binding signal values for the following items, in order.
1. TTTAGCTTAACTTATTACGATTATGGCTGTGTTTAGTTTCCGGAGTCACCTAGTGCAG
2. TGTGTTTGAGGGGTGTGTATGTGTTGTGTTGTAGGTCAACCGGAGTCACCTAGTGCAG

9160 fluorescence intensity (a.u.)
9510 fluorescence intensity (a.u.)
